Data credit: the CombiSolv-Exp solvation set (Vermeire and Green 2021)

Readings of solvation free energy, 298 K for the listed molecules
TEST_PROTOCOL: solvent given as SMILES
CONDITION_PARAMETERS: in CN1CCN(C)C1=O
Put your answer as a value accompanied by its unit after it.

INSERT INTO assay_data (mol_smiles, result) VALUES
  ('CCO', '-4.92 kcal/mol');

Ask | Look up solvation free energy, 298 K for this molecule: CCCCCCC
Reply | -3.1 kcal/mol

----------
TEST_PROTOCOL: solvent given as SMILES
CONDITION_PARAMETERS: in CCCCCCCCCCCC
MEASUREMENT_LABEL: solvation free energy, 298 K (kcal/mol)
# number only, unit kcal/mol dropped from output

Guide cases for solvation free energy, 298 K, answers given:
INSERT INTO assay_data (mol_smiles, units_label, readout_number) VALUES
  ('CCCCCCCCC', 'kcal/mol', -5.79),
  ('CCCCCC', 'kcal/mol', -3.73),
  ('CCCCC', 'kcal/mol', -3.05),
  ('CC(C)C(C)C(C)C', 'kcal/mol', -4.74),
  ('CCCCCCCC', 'kcal/mol', -5.11),
  ('CC(C)CCC(C)C', 'kcal/mol', -4.63),
  ('CCCCCCC', 'kcal/mol', -4.43);

Ask | Would you mind telling me what solvation free energy, 298 K value was observed for FC(F)(F)F ?
Reply | 0.97

----------
TEST_PROTOCOL: solvent given as SMILES
CONDITION_PARAMETERS: in COc1ccccc1
MEASUREMENT_LABEL: solvation free energy, 298 K (kcal/mol)
Write down the numeric answer in kcal/mol and omit the unit.

INSERT INTO measurements (mol_smiles, readout_number) VALUES
  ('CC(C)C(C)C(C)C', -4.35),
  ('CCCCCC', -3.41),
  ('CCCCCCCCC', -5.35),
  ('CCCCC', -2.76),
  ('CCCCCCCC', -4.7),
  ('CCCCCCC', -4.06),
  ('CCO', -3.52),
  ('C[N+](=O)[O-]', -4.65);

Now take the following compound into account.
Ask | solvation free energy, 298 K for CC(C)CCC(C)C ?
Reply | -4.22

----------
Let's look at some compounds and their measured solvation free energy, 298 K.
TEST_PROTOCOL: solvent given as SMILES
CONDITION_PARAMETERS: in CC(=O)CC(C)C
Numbers only; they are read as kJ/mol.

A selection of reference data follows.
INSERT INTO assay_data (mol_smiles, readout_number) VALUES
  ('CCCCC', -12),
  ('CCCCCCC', -18.2),
  ('CCCCCC', -15);

Let's switch to this compound now.
Ask | Which solvation free energy, 298 K reading was recorded for the compound CC(Cl)(Cl)Cl ?
Reply | -17.9

----------
Measured solvation free energy, 298 K by item
TEST_PROTOCOL: solvent given as SMILES
CONDITION_PARAMETERS: in CCC(C)=O
Hey, just the number and the unit after it is fine.

Ask | Bench note: what solvation free energy, 298 K did C[N+](=O)[O-] show?
Reply | -5.11 kcal/mol

Ask | Request: CCC(C)C(=O)OC1CC(C)C=C2C=CC(C)C(CCC3CC(O)CC(=O)O3)C21 (centres undefined)
Reply | -25.6 kcal/mol

Ask | Try the molecule CCCCCCCCCCCCCCCCCCCCCCC
Reply | -14.3 kcal/mol

Ask | Quick one: CCCCCCO
Reply | -6.96 kcal/mol

Ask | Same again, this time with c1ccncc1
Reply | -5.37 kcal/mol
